Data origin: ChEMBL document CHEMBL3856204

Give measured pIC50 for each item. Keep answers brief.
Target: Epidermal growth factor receptor (Homo sapiens)
Sequence (P00533 whole entry, the tested form may be a part): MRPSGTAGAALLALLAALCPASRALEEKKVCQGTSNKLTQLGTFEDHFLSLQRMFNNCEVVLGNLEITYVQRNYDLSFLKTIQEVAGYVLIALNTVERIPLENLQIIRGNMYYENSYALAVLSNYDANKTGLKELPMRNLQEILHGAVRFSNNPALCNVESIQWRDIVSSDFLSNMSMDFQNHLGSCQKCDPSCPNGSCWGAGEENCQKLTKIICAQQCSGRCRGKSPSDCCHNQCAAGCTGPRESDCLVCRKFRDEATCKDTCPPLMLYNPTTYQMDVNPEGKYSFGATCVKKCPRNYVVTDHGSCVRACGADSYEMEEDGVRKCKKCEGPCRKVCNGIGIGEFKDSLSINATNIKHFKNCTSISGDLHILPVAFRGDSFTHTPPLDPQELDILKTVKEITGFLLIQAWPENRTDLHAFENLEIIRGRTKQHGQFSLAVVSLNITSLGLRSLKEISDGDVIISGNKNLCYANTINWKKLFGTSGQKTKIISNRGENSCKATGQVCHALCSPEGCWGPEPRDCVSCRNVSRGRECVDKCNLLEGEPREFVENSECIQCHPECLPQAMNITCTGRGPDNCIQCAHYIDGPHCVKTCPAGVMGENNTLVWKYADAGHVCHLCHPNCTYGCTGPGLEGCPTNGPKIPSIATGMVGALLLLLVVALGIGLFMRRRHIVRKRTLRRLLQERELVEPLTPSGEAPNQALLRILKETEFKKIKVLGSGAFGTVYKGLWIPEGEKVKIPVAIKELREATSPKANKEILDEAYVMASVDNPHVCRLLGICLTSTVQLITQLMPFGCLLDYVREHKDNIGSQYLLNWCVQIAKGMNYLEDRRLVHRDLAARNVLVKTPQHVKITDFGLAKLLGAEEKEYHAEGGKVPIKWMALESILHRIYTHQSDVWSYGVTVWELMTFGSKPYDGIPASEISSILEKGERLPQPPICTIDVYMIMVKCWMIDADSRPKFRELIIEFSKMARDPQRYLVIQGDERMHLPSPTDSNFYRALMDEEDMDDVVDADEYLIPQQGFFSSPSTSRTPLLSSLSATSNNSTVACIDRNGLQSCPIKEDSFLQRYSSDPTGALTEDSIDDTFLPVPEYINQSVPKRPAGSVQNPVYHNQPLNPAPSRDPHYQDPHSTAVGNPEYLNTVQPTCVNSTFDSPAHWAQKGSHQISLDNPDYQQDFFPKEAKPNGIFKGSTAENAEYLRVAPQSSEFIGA
Test: Inhibition of recombinant human GST-tagged EGFR cytoplasmic domain (668 to 1210 residues) expressed in baculovirus by Z'-LYTE assay
The value called pIC50 is obtained by taking minus log10 of the concentration in mol/L.

Find the measured pIC50: item C[C@@H](Nc1ncnc2oc(-c3cccc(O)c3)cc12)c1ccccc1 , target or system Epidermal growth factor receptor (Homo sapiens). 8.34

Find the measured pIC50: item COc1ccccc1-c1cc2c(N[C@H](C)c3ccccc3)ncnc2o1 , target or system Epidermal growth factor receptor (Homo sapiens). 8.40

Find the measured pIC50: item C=Cc1ccc(-c2cc3c(N[C@H](C)c4ccccc4)ncnc3o2)cc1 , target or system Epidermal growth factor receptor (Homo sapiens). 7.54
